B1: HDV Ribozyme (parent)
chain: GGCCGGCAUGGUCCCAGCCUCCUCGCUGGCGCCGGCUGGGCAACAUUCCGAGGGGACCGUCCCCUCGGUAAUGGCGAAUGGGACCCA

variants of: B1; assay: self-cleavage, relative activity (ratio to wild type); higher = more cleavage; co-transcriptional
quantity_measured: self-cleavage
Would you mind answering with just the numeric figure?

Use the examples below as a reference point.
INSERT INTO measurements (variant_code, measurement) VALUES
  ('U27C C84G', 0.554),
  ('A43G C63A', 0.642),
  ('G39U A45G', 0.743),
  ('C26G G28A', 0.0449),
  ('G39C G59C', 0.162);

// moving on: another record for self-cleavage
I would be grateful if you could share the reported self-cleavage for C18G G82U .
0.219
